Experimental Target: N-formyl peptide receptor 2 (Homo sapiens, UniProt P25090)
Sequence (P25090 whole entry): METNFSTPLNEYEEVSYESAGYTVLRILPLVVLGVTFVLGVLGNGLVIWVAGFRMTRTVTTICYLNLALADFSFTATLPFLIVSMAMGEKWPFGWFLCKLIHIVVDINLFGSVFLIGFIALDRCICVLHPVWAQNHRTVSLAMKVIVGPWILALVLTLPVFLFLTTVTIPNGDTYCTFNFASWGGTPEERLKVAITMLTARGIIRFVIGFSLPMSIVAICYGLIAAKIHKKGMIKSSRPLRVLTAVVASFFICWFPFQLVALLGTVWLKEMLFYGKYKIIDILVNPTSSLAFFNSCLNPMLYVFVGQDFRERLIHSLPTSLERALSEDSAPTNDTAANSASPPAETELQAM
Protocol Text: Agonist activity at human FPR2 transfected in human HL-60 cells assessed as increase in calcium mobilization measured every 5 seconds for 240 secs by Fluo-4-AM dye based fluorescence assay
Recorded Endpoint: pEC50
Answers are plain numbers, as −log10 of the molar value.

Below are worked cases with known answers.
INSERT INTO measurements (smiles_code, numeric_result) VALUES
  ('CC1(C)CN(C(=O)[C@H](Cc2ccc(C#N)cc2)NC(=O)Nc2ccc(F)cc2)c2ccccc21', 5.64),
  ('N#Cc1ccc(C[C@H](NC(=O)Nc2ccc(F)cc2)C(=O)N2CCc3ccc(F)cc3C2)cc1', 6.35),
  ('N#Cc1ccc(C[C@H](NC(=O)Nc2ccc(F)cc2)C(=O)N2Cc3ccccc3C2)cc1', 6.47),
  ('N#Cc1ccc(C[C@@H](NC(=O)Nc2ccc(F)cc2)C(=O)N2CCc3cccnc32)cc1', 5.96);

Please provide the recorded pEC50 for N#Cc1ccc(C[C@H](NC(=O)Nc2ccc(F)cc2)C(=O)N2CCC(F)(F)CC2)cc1 , tested on N-formyl peptide receptor 2 (Homo sapiens, UniProt P25090).
4.71
